# Test details: Metabolic stability test: liver microsomal stability assay
# Assay type: in vitro ADME, mouse
# Condition notes: male, pH 7.4; mouse liver microsomes 0.5 mg protein/mL, compound 1 µM, presence of NADPH; read-out: Mouse Hepatic Microsome CLh,int NADPH(+)
Starred links: 1 amine or outer side, 2 acyl side, 3 side chain; linkers in the order of their positions; H or OH if unused. Positions of bridges follow the written chain, without caps; N, C: chain ends. Non-standard residues stand in square brackets, D forms with d. Residues, ends and D or L forms follow the SMILES beside them. *: point of attachment. NMedβ3hAla = C[C@H](CC(=O)[*:2])N(C)[*:1]; NMeF = CN[C@@H](Cc1ccccc1)C(=O)O; NMeL = CN[C@@H](CC(C)C)C(=O)O; NMeV = CN[C@H](C(=O)O)C(C)C; NMeAbu = CC[C@H](NC)C(=O)O; NMeA = CN[C@@H](C)C(=O)O; Piperidide = C1CCN(*)CC1; Abu = CC[C@H](N)C(=O)O; Sar = CNCC(=O)O; tBu = CC(C)(C)*
Recorded microsomal CLint at 1 µM values for a group of compounds are listed next.

Query: Quick check: microsomal CLint at 1 µM of CC[C@H](C)[C@@H]1NC(=O)[C@H](C)NC(=O)[C@H](C(C)C)N(C)C(=O)[C@H](COC(C)(C)C)NC(=O)[C@H](C)N(C)C(=O)C[C@@H](C(=O)N2CCCCC2)NC(=O)[C@H](C(C)C)NC(=O)[C@H](Cc2ccccc2)N(C)C(=O)[C@H](CC(C)C)N(C)C(=O)[C@H]([C@@H](C)O)NC(=O)[C@H](CC)N(C)C(=O)[C@H](Cc2ccccc2)N(C)C(=O)[C@H](C)NC(=O)[C@@H]2CCCN2C1=O [pd025] ([NMeA]S(tBu)[NMeV]AIPA[NMeF][NMeAbu]T[NMeL][NMeF]VD-Piperidide; lactam N-14) ?
Reply: 14.8 µL/min/mg

Query: Quick check: microsomal CLint at 1 µM of CC[C@@H]1NC(=O)[C@H]([C@@H](C)O)NC(=O)[C@H](Cc2ccccc2)N(C)C(=O)[C@H](CC(C)C)N(C)C(=O)[C@H](C(C)C)N(C)C(=O)[C@H](CC)N(C)C(=O)[C@H]([C@@H](C)CC)NC(=O)[C@H](CC(C)C)N(C)C(=O)[C@H](C)N(C)C(=O)[C@H](C)NC(=O)C[C@@H](C)N(C)C(=O)[C@H](CC(C)C)N(C)C(=O)[C@H](C)N(C)C(=O)CN(C)C1=O [pd072] (cyclo(A[NMeA][NMeL]I[NMeAbu][NMeV][NMeL][NMeF]T[Abu][Sar][NMeA][NMeL][NMedβ3hAla])) ?
Reply: 22.4 µL/min/mg

---

# Test details: Metabolic stability test: liver microsomal stability assay
# Format: in vitro ADME, mouse
# Condition notes: male, pH 7.4; mouse liver microsomes 0.5 mg protein/mL, compound 1 µM, presence of NADPH; read-out: Mouse Hepatic Microsome CLh,int NADPH(+)
Starred links: 1 amine or outer side, 2 acyl side, 3 side chain; linkers in the order of their positions; H or OH if unused. Positions of bridges follow the written chain, without caps; N, C: chain ends. Non-standard residues stand in square brackets, D forms with d. Residues, ends and D or L forms follow the SMILES beside them. *: point of attachment. NMedβ3hAla = C[C@H](CC(=O)[*:2])N(C)[*:1]; NMeF = CN[C@@H](Cc1ccccc1)C(=O)O; NMeI = CC[C@H](C)[C@H](NC)C(=O)O; NMeβAla = CN(CCC(=O)[*:2])[*:1]; NMeD = CN[C@@H](CC(=O)O)C(=O)O; NMeL = CN[C@@H](CC(C)C)C(=O)O; dNMeV = CN[C@@H](C(=O)O)C(C)C; NMeV = CN[C@H](C(=O)O)C(C)C; NMeAbu = CC[C@H](NC)C(=O)O; NMeA = CN[C@@H](C)C(=O)O; Piperidide = C1CCN(*)CC1; Abu = CC[C@H](N)C(=O)O; NBuGly = CCCCNCC(=O)O; βAla = NCCC(=O)O; Sar = CNCC(=O)O; tBu = CC(C)(C)*
Assay readout: microsomal CLint at 1 µM (µL/min/mg)
Unit µL/min/mg implied. Number only.

Below: 4 compounds and their reported microsomal CLint at 1 µM.
Compound	Result units	microsomal CLint at 1 µM
CC[C@@H]1NC(=O)[C@H](Cc2ccccc2)N(C)C(=O)[C@@H]2CCCN2C(=O)[C@H](CC(C)C)N(C)C(=O)[C@H](C(C)C)NC(=O)[C@H](CC(C)C)N(C)C(=O)[C@H]([C@@H](C)O)NC(=O)[C@H](Cc2ccccc2)N(C)C(=O)CN(C)C(=O)C[C@@H](C)N(C)C(=O)[C@H](C(C)C)NC(=O)[C@H](COC(C)(C)C)NC(=O)[C@H](C)N(C)C1=O [pd146] (cyclo([Abu][NMeA]S(tBu)V[NMedβ3hAla][Sar][NMeF]T[NMeL]V[NMeL]P[NMeF]))	µL/min/mg	20.3
CC[C@H](C)[C@@H]1NC(=O)[C@H](CC(C)C)N(C)C(=O)[C@H](CC(C)C)N(C)C(=O)[C@H](C)N(C)C(=O)C[C@@H](C(=O)N2CCCCC2)N(C)C(=O)[C@H](C)N(C)C(=O)[C@H](CC(C)C)NC(=O)[C@H](C(C)C)N(C)C(=O)[C@H](CC(C)C)N(C)C(=O)CNC(=O)[C@H]([C@@H](C)CC)N(C)C(=O)[C@H](Cc2ccccc2)N(C)C(=O)[C@H](C)NC(=O)[C@H](Cc2ccccc2)N(C)C1=O [pd084] ([NMeA][NMeL][NMeL]I[NMeF]A[NMeF][NMeI]G[NMeL][NMeV]L[NMeA][NMeD]-Piperidide; lactam N-14)	µL/min/mg	39
CCCCN1CC(=O)N(C)[C@@H](Cc2ccccc2)C(=O)N[C@@H](COC(C)(C)C)C(=O)N(C)[C@@H](CC(C)C)C(=O)NCCC(=O)N(C)[C@@H](C)C(=O)N(C)[C@@H]([C@@H](C)CC)C(=O)N[C@@H](CC(C)C)C(=O)N(C)[C@H](C(=O)N2CCCCC2)CC(=O)N(C)CCC(=O)N(C)[C@@H](CC(C)C)C(=O)N[C@@H]([C@@H](C)CC)C(=O)N(C)[C@@H](Cc2ccccc2)C1=O [pd154] ([NMeβAla][NMeL]I[NMeF][NBuGly][NMeF]S(tBu)[NMeL][βAla][NMeA][NMeI]L[NMeD]-Piperidide; lactam N-13)	µL/min/mg	41.7
CCCCN1CC(=O)N(C)[C@@H](CC(C)C)C(=O)N[C@@H](COC(C)(C)C)C(=O)N(C)[C@@H](Cc2ccccc2)C(=O)N(C)[C@@H](C)C(=O)N(C)[C@@H](C(C)C)C(=O)N[C@H](C(=O)N2CCCCC2)CC(=O)N(C)[C@H](C(C)C)C(=O)N(C)[C@@H](Cc2ccccc2)C(=O)N2CCC[C@H]2C(=O)N(C)[C@@H](C(C)C)C(=O)N(C)[C@@H](CC(C)C)C(=O)N[C@@H]([C@@H](C)O)C1=O [pd123] ([dNMeV][NMeF]P[NMeV][NMeL]T[NBuGly][NMeL]S(tBu)[NMeF][NMeA][NMeV]D-Piperidide; lactam N-13)	µL/min/mg	31

Query: Quick check: microsomal CLint at 1 µM of CC[C@H]1C(=O)N[C@@H](C(C)C)C(=O)N[C@H](C(=O)N2CCCCC2)CC(=O)N(C)[C@H](C(C)C)C(=O)N(C)[C@@H](Cc2ccccc2)C(=O)N[C@@H](CC(C)C)C(=O)N(C)CC(=O)N[C@@H](CC(C)C)C(=O)N[C@@H]([C@@H](C)O)C(=O)N(C)[C@@H](CC(C)C)C(=O)N(C)[C@@H](C(C)C)C(=O)N[C@@H](C)C(=O)N[C@@H](COC(C)(C)C)C(=O)N(C)[C@@H](Cc2ccccc2)C(=O)N1C [pd020] ([dNMeV][NMeF]L[Sar]LT[NMeL][NMeV]AS(tBu)[NMeF][NMeAbu]VD-Piperidide; lactam N-14) ?
Reply: 33.3

Query: Quick check: microsomal CLint at 1 µM of CC[C@H](C)[C@H]1C(=O)N[C@@H](CC(C)C)C(=O)N(C)[C@@H](CC(C)C)C(=O)N2CCC[C@H]2C(=O)N(C)[C@@H](C(C)C)C(=O)N[C@H](C(=O)N2CCCCC2)CC(=O)N[C@@H](C)C(=O)N(C)[C@@H](CC(C)C)C(=O)N[C@@H](C(C)C)C(=O)N(C)[C@@H](Cc2ccccc2)C(=O)N(C)[C@@H](CC(C)C)C(=O)N[C@@H](C)C(=O)N(C)[C@@H](Cc2ccccc2)C(=O)N[C@@H]([C@@H](C)O)C(=O)N1C [pd036] (A[NMeL]V[NMeF][NMeL]A[NMeF]T[NMeI]L[NMeL]P[NMeV]D-Piperidide; lactam N-14) ?
Reply: 35.4

Query: Quick check: microsomal CLint at 1 µM of CC[C@H](C)[C@@H]1NC(=O)[C@H]([C@@H](C)CC)N(C)C(=O)[C@@H](C)NC(=O)C[C@@H](C(=O)N2CCCCC2)N(C)C(=O)[C@H](C(C)C)NC(=O)[C@H](Cc2ccccc2)N(C)C(=O)[C@H](C(C)C)NC(=O)[C@H](CC(C)C)N(C)C(=O)[C@H](C)NC(=O)CN(C)C(=O)[C@H](CC(C)C)N(C)C(=O)[C@H](C(C)C)NC(=O)[C@H](C)N(C)C(=O)[C@H](Cc2ccccc2)N(C)C1=O [pd074] ([dA][NMeI]I[NMeF][NMeA]V[NMeL][Sar]A[NMeL]V[NMeF]V[NMeD]-Piperidide; lactam N-14) ?
Reply: 26.9

Query: Quick check: microsomal CLint at 1 µM of CCCCN1CC(=O)N(C)[C@@H](CC)C(=O)N[C@@H](CC(C)C)C(=O)N[C@H](C(=O)N2CCCCC2)CC(=O)N(C)[C@@H](C)C(=O)N[C@@H]([C@@H](C)CC)C(=O)N(C)[C@@H](Cc2ccccc2)C(=O)N(C)[C@@H](CC(C)C)C(=O)N[C@@H](C(C)C)C(=O)N(C)CC(=O)N[C@@H](CC(C)C)C(=O)N(C)[C@@H](Cc2ccccc2)C(=O)N(C)[C@@H](C)C(=O)N[C@@H](CC(C)C)C1=O [pd018] ([NMeA]I[NMeF][NMeL]V[Sar]L[NMeF][NMeA]L[NBuGly][NMeAbu]LD-Piperidide; lactam N-14) ?
Reply: 42.3
